- TARGET DESC: UniProtKB P22303
- EXPERIMENT: Inhibition of AChE in human erythrocytes using acetylthiocholine iodide as substrate at 50 uM incubated for 20 mins by DTNB reagent based Ellman's method
- Format: cell-based
- COND: Erythrocyte
Below is a list of entries, each paired with its recorded inhibition value.
MEASURE: inhibition (%)

compound="COC1(C)Cc2c(C=O)c(O)c(Cc3c(O)c(C=O)c4c(c3O)COC(C)(OC)C4)c(O)c2CO1 (stereo not given)" measure=inhibition reported_result=53
compound="COC1(C)Cc2c(C=O)c(O)c(Cc3c(O)c(C=O)c4c(c3O)COC(C)=C4)c(O)c2CO1 (stereo not given)" measure=inhibition reported_result=55
compound=CC1=Cc2c(C=O)c(O)c(Cc3c(O)c(C=O)c4c(c3O)COC(C)=C4)c(O)c2CO1 measure=inhibition reported_result=46
compound="COC1(C)Cc2c(C=O)c(O)c(C)c(O)c2CO1 (stereo not given)" measure=inhibition reported_result=-1
compound=CC1=Cc2c(C=O)c(O)c(C)c(O)c2CO1 measure=inhibition reported_result=-2

====

- TARGET DESC: DNA gyrase (Escherichia coli, UniProt P0AES4+P0AES6)
- EXPERIMENT: Inhibition of Escherichia coli DNA gyrase assessed as inhibition of relaxation of supercoiled plasmid pBR322 DNA incubated for 2 hrs by ethidium bromide/bromophenol blue staining based agarose gel electrophoresis analysis
- Format: protein-complex assay
pIC50: −log10 of the molar value.
MEASURE: pIC50

smiles_input=CCCCCCC[C@H]1Cc2cc(O)c(C(=O)O)c(O)c2[C@@H](O)O1 reported_result=4.56

====

- EXPERIMENT: Displacement of [3H]SCH-23390 from porcine striatum dopamine D2 receptor incubated for 30 mins by radioligand competition binding assay based scintillation counter analysis
- Type: tissue-based, Sus scrofa
pKi: −log10 of the molar value.
MEASURE: pKi

smiles_input=NC[C@@H]1O[C@H](C23CC4CC(CC(C4)C2)C3)Cc2c1ccc(O)c2O measure=pKi reported_result=5.73

====

- TARGET DESC: Acetylcholinesterase (Homo sapiens)
- Sequence (P22303 whole entry): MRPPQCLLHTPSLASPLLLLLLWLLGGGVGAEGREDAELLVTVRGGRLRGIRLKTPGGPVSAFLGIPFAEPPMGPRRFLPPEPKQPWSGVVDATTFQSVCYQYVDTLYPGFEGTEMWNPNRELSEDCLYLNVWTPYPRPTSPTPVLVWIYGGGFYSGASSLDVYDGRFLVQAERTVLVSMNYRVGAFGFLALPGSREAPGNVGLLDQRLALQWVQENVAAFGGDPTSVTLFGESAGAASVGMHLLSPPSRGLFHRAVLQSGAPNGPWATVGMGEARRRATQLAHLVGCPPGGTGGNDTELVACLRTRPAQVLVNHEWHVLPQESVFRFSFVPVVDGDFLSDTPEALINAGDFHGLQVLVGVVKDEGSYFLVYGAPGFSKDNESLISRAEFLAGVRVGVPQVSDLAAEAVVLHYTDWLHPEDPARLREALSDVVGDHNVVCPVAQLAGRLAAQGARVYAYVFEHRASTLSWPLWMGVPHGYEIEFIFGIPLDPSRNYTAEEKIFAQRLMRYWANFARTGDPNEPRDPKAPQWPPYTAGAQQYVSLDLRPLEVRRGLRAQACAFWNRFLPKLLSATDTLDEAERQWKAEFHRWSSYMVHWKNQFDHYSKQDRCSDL
pIC50: −log10 of the molar value.
MEASURE: pIC50

smiles_input=COc1cc2c(cc1OC)C(=O)/C(=C/c1cc[n+](Cc3ccc(F)cc3)cc1)OC2 measure=pIC50 reported_result=9.82

====

- TARGET DESC: DNA gyrase (Escherichia coli, UniProt P0AES4+P0AES6)
- EXPERIMENT: Inhibition of Escherichia coli DNA gyrase supercoiling activity using pBR322 DNA as substrate incubated for 2 hrs by ethidium bromide/bromophenol blue staining based agarose gel electrophoresis analysis
- Type: protein-complex assay
pIC50: −log10 of the molar value.
MEASURE: pIC50

smiles_input=CCCCCCC[C@H]1Cc2cc(O)c(C(=O)O)c(O)c2[C@@H](O)O1 reported_result=4.73

====

- TARGET DESC: 5-hydroxytryptamine receptor 1B (Homo sapiens, UniProt P28222)
- Sequence (P28222 whole entry): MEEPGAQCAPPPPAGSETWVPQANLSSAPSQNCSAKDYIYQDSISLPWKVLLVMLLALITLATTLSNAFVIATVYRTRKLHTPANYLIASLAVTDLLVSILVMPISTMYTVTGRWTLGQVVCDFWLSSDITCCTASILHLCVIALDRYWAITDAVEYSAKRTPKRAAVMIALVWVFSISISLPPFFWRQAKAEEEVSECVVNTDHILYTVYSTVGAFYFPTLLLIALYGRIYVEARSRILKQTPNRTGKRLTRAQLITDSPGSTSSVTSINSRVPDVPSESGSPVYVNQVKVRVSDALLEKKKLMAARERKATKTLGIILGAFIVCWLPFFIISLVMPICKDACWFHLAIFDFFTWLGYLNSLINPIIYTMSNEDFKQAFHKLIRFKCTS
- EXPERIMENT: Displacement of [3H]serotonin from recombinant human 5-HT1B receptor expressed in HEK293 cells incubated for 1 hr by competitive radioligand binding assay based
MEASURE: Ki

smiles_input=CNC(=O)c1ccc2c(c1)CCO[C@H]2CCN1CCN(c2ccc(OC)cc2)CC1 target_desc="5-hydroxytryptamine receptor 1B (Homo sapiens, UniProt P28222)" reported_result="5.78 µM"

====

- TARGET DESC: D(1A) dopamine receptor (Sus scrofa)
- Sequence (P50130 whole entry): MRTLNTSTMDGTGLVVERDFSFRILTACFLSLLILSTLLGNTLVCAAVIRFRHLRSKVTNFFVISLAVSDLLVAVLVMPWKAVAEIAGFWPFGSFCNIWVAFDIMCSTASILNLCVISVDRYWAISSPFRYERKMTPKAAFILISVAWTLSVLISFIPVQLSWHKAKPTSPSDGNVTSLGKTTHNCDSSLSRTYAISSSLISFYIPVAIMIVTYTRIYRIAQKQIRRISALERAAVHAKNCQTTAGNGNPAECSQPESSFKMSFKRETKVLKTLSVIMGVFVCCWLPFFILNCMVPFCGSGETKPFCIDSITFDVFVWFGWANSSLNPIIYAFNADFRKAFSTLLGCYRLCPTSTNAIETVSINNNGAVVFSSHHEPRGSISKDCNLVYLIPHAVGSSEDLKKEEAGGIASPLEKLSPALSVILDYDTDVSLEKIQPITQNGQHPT
- EXPERIMENT: Displacement of [3H]SCH-23390 from porcine striatum dopamine D1 receptor incubated for 30 mins by radioligand competition binding assay based scintillation counter analysis
MEASURE: Ki (nM)

smiles_input=NC[C@@H]1O[C@H](C23CC4CC(CC(C4)C2)C3)Cc2c1ccc(O)c2O result_units=nM reported_result=3.9
